pKi: −log10 of the molar value.
Field: pKi. System: UniProt:P30542. Provenance: assorted publications.
testReadout: pKi

The recorded pKi for entry CNC(=O)c1cnc(NC(=O)Cc2ccccc2)n2nc(-c3ccco3)nc12 equals 6.53

The recorded pKi for entry Cn1cc2c(nc(N)n3nc(-c4ccc(F)cc4)nc23)n1 equals 6.00

The recorded pKi for entry Nc1nc(-c2ccc(NCC(=O)c3ccc(S(N)(=O)=O)cc3)cc2)cn2c(=O)n(-c3ccccc3)nc12 equals 6.88

I: Cc1ccc2c(O)c(C(=O)NCc3ccc(Cl)cc3)cnc2n1
II: Nc1nc(-c2ccc(OCCO)cc2)cn2c(=O)n(-c3ccccc3)nc12
Ask: Endpoint returns whichever of I and II has the numerically higher pKi. Refer to your chosen item by its label in the answer.
Reply: II
(II: 6.29, I: 5.79)

====

Field: Ki. System: Adenosine receptor A1 (Homo sapiens). Provenance: assorted publications.
testReadout: Ki (nM)

The recorded Ki for entry CCCn1c(=O)c2nc([C@]34CC[C@](CCCC(=O)O)(CC3)CC4)[nH]c2n(CCC)c1=O equals 29

The recorded Ki for entry Nc1nc(OCCc2c[nH]c3cccc(Br)c23)nc2c1ncn2[C@@H]1O[C@H](CO)[C@@H](O)[C@H]1O equals 443

The recorded Ki for entry CCN(CC)[C@H]1CCN(CC(=O)Nc2cc(-n3nc(C)cc3C)nc(-c3ccc(C)o3)n2)C1 equals 2600

1: CCC(=O)Nc1cc(-c2ccccc2OC)nc(-c2ccccc2OC)n1
2: CN(C)c1nc(-c2cnccn2)c2sccc2n1
Ask: Endpoint returns whichever of 1 and 2 has the numerically higher Ki. Refer to your chosen item by its label in the answer.
Reply: 2

====

Field: Ki. System: the protein given by its sequence. Provenance: assorted publications.
Sequence of the target: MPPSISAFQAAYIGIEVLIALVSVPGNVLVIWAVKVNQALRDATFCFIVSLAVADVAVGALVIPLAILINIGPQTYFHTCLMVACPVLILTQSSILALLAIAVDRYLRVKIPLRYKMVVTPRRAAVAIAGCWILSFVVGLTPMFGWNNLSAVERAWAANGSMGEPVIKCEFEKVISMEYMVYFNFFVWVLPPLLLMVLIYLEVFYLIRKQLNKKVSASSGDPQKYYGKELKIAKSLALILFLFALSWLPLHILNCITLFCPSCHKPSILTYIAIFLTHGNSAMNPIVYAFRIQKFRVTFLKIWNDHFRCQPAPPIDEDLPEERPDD
testReadout: Ki (nM)

Examples from the recorded data:
The recorded Ki for entry CNC(=O)[C@@]12C[C@@H]1[C@@H](n1cnc3c(OC)nc(C#Cc4ccc(Cl)s4)nc31)[C@H](O)[C@@H]2O equals 796

The recorded Ki for entry Cc1nn(Cc2ccccc2)c(=O)c2ncn3nc(-c4ccccc4)cc3c12 equals 104

The recorded Ki for entry Nc1nc(CCCc2ccc(O)cc2)nc2cn(-c3ccccc3)nc12 equals 18

The recorded Ki for entry CCCn1c(=O)c2nc(-c3cnn(Cc4nc(-c5cccc(C(F)(F)F)c5)no4)c3)[nH]c2n(CCC)c1=O equals 3500

A: Cn1cc2c(nc(NC(=O)NC3CCN(C(=O)NCc4ccc(Cl)cc4)CC3)n3nc(-c4ccco4)nc23)n1
B: CCNC(=O)[C@H]1O[C@@H](n2cnc3c(Nc4ccc(OCC(=O)Nc5ccc(Cl)cc5)cc4)ncnc32)[C@H](O)[C@@H]1O
Ask: Of A and B , whose reported Ki is numerically smaller? Refer to your chosen item by its label in the answer.
Reply: B
(B: 3.1 nM, A: 614 nM)

====

Field: Ki. System: Adenosine receptor A1 (Homo sapiens, UniProt P30542). Provenance: assorted publications.
testReadout: Ki (nM)

Examples from the recorded data:
The recorded Ki for entry Cn1cc2c(nc(N)n3nc(-c4ccc(Cl)cc4)nc23)n1 equals 4860

The recorded Ki for entry Cc1ccc2ncc3nc(-c4ccccc4)nn3c2c1 equals 1320

The recorded Ki for entry CCN(C(C)=O)c1ccc(OC)c2nc(NC(=O)c3ccc(C(=O)N(C)CCOC)cc3)sc12 equals 180

The recorded Ki for entry CC(C)COc1ccc(-c2c(C#N)c(N)nc(SCC(N)=O)c2C#N)cc1 equals 603

The recorded Ki for entry COc1cc(NC(=O)CC(C)(C)C)ccc1C(=O)Nc1nccs1 equals 1100

A: CC(C)(C)C(=O)Nc1nc(C2CC2)cs1
B: Nc1nc(OCCc2c[nH]c3ccc(Cl)cc23)nc2c1ncn2[C@@H]1O[C@H](CO)[C@@H](O)[C@H]1O
Ask: Endpoint returns whichever of A and B has the numerically higher Ki. Refer to your chosen item by its label in the answer.
Reply: A

====

Biological target: Adenosine receptor A1 (Homo sapiens, UniProt P30542)
Sequence (P30542 whole entry): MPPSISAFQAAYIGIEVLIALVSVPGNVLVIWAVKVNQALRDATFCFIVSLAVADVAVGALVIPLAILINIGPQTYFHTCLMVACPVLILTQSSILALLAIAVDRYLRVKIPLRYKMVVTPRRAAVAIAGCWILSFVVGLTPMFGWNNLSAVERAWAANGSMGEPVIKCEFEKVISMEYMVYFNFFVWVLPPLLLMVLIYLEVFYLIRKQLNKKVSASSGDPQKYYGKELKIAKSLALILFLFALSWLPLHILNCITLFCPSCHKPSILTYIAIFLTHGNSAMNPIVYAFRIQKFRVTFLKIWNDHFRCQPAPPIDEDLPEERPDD
Field: Ki. System: Adenosine receptor A1 (Homo sapiens, UniProt P30542). Provenance: assorted publications.
testReadout: Ki (nM)

The recorded Ki for entry S=c1c2ncn3nc(-c4ccccc4)cc3c2c(C2CCCCC2)nn1Cc1ccccc1 equals 9.5

The recorded Ki for entry CCCN1CCC(NC(=O)Nc2nc3nn(C)cc3c3nc(-c4ccco4)nn23)CC1 equals 2790

The recorded Ki for entry CCn1c(=O)c2c(nc(/C=C/c3ccc(OC)c(OC)c3)n2C)n(CC)c1=O equals 3000

The recorded Ki for entry Nc1nc(C(=O)NCc2cccc3[nH]cnc23)c2cccc(F)c2n1 equals 281

The recorded Ki for entry C=CCN1C(=O)N2CC(C)N=C2c2[nH]c(-c3cc(C)nn3C)nc21 (racemic) equals 2040

The recorded Ki for entry CCn1cc2c(nc(NC(=O)Nc3cccc(Cl)c3)n3nc(-c4ccco4)nc23)n1 equals 249

A: Nc1nc(NCCc2ccccc2)nc2sc(-c3ccco3)nc12
B: Nc1nc(SCc2ncc[nH]2)nc(-c2ccccc2)n1
C: CN1CCN(C(=O)N2CCC(NC(=O)Nc3nc4nn(C)cc4c4nc(-c5ccco5)nn34)CC2)CC1
D: COCCCNc1nc2ccccc2n2nc(-c3ccco3)nc12
E: Cn1cc2c(nc(NC(=O)NC3CCN(C(=O)NCCc4ccccc4)CC3)n3nc(-c4ccco4)nc23)n1
Ask: Please put the entries in order of rising Ki. State the ranking by listing the labels in the requested order.
Reply: A, D, E, B, C
(A: 24 nM, D: 74.1 nM, E: 182 nM, B: 288 nM, C: 1120 nM)

====

Field: Ki. System: Adenosine receptor A1 (Homo sapiens, UniProt P30542). Provenance: assorted publications.
testReadout: Ki (nM)

The recorded Ki for entry Nc1nc(OCCc2c[nH]c3ccc(Br)cc23)nc2c1ncn2[C@@H]1O[C@H](CO)[C@@H](O)[C@H]1O equals 358

The recorded Ki for entry COC[C@H]1CCCN1c1cc(NC(C)=O)nc(-n2nc(C)cc2C)n1 equals 162

The recorded Ki for entry Clc1ccc(-c2nc(N3CCCCC3)c3nc[nH]c3n2)cc1 equals 126

The recorded Ki for entry CCN(CC)c1nc2ccccc2n2nc(-c3ccco3)nc12 equals 135

The recorded Ki for entry COc1ccc(CNc2nc3nn(C)cc3c3nc(-c4ccco4)nn23)cc1 equals 442

a: COCCOc1cncc(-c2cc(NC(C)=O)nc(-n3nc(C)cc3C)n2)c1
b: CCCn1c(=O)c2nc(-c3cnn(Cc4nc(-c5ccccc5Cl)no4)c3)[nH]c2n(CCC)c1=O
Ask: Endpoint returns whichever of a and b has the numerically higher Ki. Refer to your chosen item by its label in the answer.
Reply: b

P: COc1nc2ccccc2n2nc(-c3ccco3)nc12
Q: Cn1cc2c(nc(NCCCCCCO)n3nc(-c4ccco4)nc23)n1
R: OCCNc1nc2ccccc2n2nc(-c3ccco3)nc12
Ask: Please put the entries in order of rising Ki. State the ranking by listing the labels in the requested order.
Reply: R, P, Q
(R: 3.16 nM, P: 331 nM, Q: 483 nM)

====

Field: Ki. System: the protein given by its sequence. Provenance: assorted publications.
Target chain: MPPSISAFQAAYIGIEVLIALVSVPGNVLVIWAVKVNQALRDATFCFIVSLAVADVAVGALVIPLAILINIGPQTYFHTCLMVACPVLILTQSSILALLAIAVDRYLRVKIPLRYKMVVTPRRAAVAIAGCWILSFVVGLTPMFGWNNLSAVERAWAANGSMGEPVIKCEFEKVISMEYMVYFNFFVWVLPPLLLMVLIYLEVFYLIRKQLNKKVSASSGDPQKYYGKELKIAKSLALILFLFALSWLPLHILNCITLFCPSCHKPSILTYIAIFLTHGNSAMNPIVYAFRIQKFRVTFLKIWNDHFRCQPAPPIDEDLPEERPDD
testReadout: Ki (µM)

Examples from the recorded data:
The recorded Ki for entry Nc1nc(-c2ccc(NC(=O)c3ccc(C(=O)O)cc3)cc2)cn2c(=O)n(-c3ccccc3)nc12 equals 2.37

The recorded Ki for entry CCCCC#Cc1nc(NC)c2nc(-c3cccs3)n([C@@H]3OC[C@@H](O)[C@H]3O)c2n1 equals 2.31

I: CCOC(=O)N1Cc2nc(-c3ccc(OC)cc3)nn2-c2cc(C)ccc21
II: N#Cc1c(N)nc(SCc2csc(C3CCCCC3)n2)nc1-c1ccc2c(c1)OCO2
Ask: Endpoint returns whichever of I and II has the numerically higher Ki. Refer to your chosen item by its label in the answer.
Reply: I
(I: 0.086 µM, II: 0.0063 µM)
